- target.under.test: GST-TMEM106B (truncated, comprising amino acids 122-210 of SEQ ID NO:1) (Homo sapiens, UniProt Q9NUM4)
- Sequence (Q9NUM4 122-210): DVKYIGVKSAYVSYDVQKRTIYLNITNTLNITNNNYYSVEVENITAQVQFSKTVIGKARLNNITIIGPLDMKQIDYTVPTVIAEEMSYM
- method.summary: Pre-mix epitope binning of anti-TMEM106B antibodies (Carterra / Lake Pharma)
- Format: binding
- Parameters: key: Bin 1: competes for binding to the same or overlapping TMEM106B region as the TM1, TM17, TM22, TM26, TM79, and/or TM82 antibodies; Bin 2: competes for binding to the same or overlapping TMEM106B region as the TM3, TM9, TM10, TM11, TM12, TM13, TM18, TM19, TM21, TM24, TM25, TM32, TM35, TM37, TM42, TM45, TM48, TM54, TM59, TM60, TM61, and/or TM76 antibodies; Bin 3: competes for binding to the same or overlapping TMEM106B region as the TM7, TM15, TM83, and/or TM84 antibodies; Bin 4: competes for binding to the same or overlapping TMEM106B region as the TMS, TM28, TM29, TM30, TM63, TM64, TM72, TM78, TM80, TM86, and/or TM88 antibodies; Bin 5: does not bind to a truncated TMEM106B comprising amino acids 122-210 of SEQ ID NO:1
- conditions.used: competition for binding to truncated GST-TMEM106B (amino acids 122-210)

molecule: TM-48: anti-TMEM106B monoclonal antibody; CDR-H1-3 SEQ ID NO: 32, 74, 116; CDR-L1-3 SEQ ID NO: 155, 160, 218 (antibody, V domains shown) VH: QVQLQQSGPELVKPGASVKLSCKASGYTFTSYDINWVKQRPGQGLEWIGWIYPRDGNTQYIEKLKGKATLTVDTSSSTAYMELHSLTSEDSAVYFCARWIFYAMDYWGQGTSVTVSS VL: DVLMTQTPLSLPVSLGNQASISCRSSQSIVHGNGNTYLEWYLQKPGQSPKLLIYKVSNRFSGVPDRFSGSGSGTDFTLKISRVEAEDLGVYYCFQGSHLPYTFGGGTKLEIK
epitope bin: Bin 2

Just for reference, patent US20240166738A1 is where these values come from.
